Target: human recombinant IL-17A (Homo sapiens)
Construct: purchased R&D Systems 7955-IL/CF
Sequence (Q16552 24-155): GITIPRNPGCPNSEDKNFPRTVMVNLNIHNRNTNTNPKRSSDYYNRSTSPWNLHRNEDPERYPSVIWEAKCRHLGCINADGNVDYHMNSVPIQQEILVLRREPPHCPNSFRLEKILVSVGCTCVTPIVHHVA
Experiment: IL-17A AlphaLISA assay (block binding of IL-17A to its receptor IL-17RA)
Conditions: compounds pre-incubated with the IL-17A for 24 h at room temperature; read-out: AlphaLISA pIC50 (converted)
Recorded Endpoint: IC50
Answers without a unit are incomplete; give the number and then its unit.

IC50 on human recombinant IL-17A (Homo sapiens) for `COc1cnccc1-c1ccc(NC(=O)[C@@H](NC(=O)c2ccnn2C)C(c2ccccc2)c2ccccc2)cc1` is 12.6 nM

IC50 on human recombinant IL-17A (Homo sapiens) for `Cn1nccc1C(=O)N[C@H](C(=O)Nc1ccc(C2=CCOCC2)cc1)C(c1ccccc1)c1ccccc1` is 12.6 nM

IC50 on human recombinant IL-17A (Homo sapiens) for `Cn1nccc1C(=O)N[C@H](C(=O)Nc1ccc(-c2ncnc3c2CCN3)cc1)C(c1ccccc1)c1ccccc1` is 63.1 nM

IC50 on human recombinant IL-17A (Homo sapiens) for `Cc1cc(NC(=O)[C@@H](NC(=O)c2ccnn2C)C(c2ccccc2)c2ccccc2)ccc1-c1ccncc1` is 100 nM
